Assay comment: Solubility measurement in buffer D-PBS 1X (pH = 7.2)
Test conditions: pH 7.2, aqueous buffer, Solubility Buffer D-PBS 1X (pH = 7.2), molarity, D-PBS 1X, pH = 7.2
Excerpt: The solvent used is constituted by a buffered solution at pH=7.2 “Dulbecco's Phosphate Buffered Saline” (D-PBS 1X), marketed by Gibco (reference 14190).
Assay endpoint: solubility (µM)
# number only, unit µM dropped from output

Read off the recorded solubility for O=C(N[C@H]1[C@H](O)[C@@H](O)[C@@H](O)[C@@H]2NC(=O)c3c(cc4c(c3O)OCO4)[C@@H]12)c1ccccc1 [Compound 22]
867

###

Assay comment: Solubility measurement in buffer D-PBS 1X (pH = 7.2)
Test conditions: pH 7.2, aqueous buffer, Solubility Buffer D-PBS 1X (pH = 7.2), mass by volume unit, D-PBS 1X, pH = 7.2
Assay endpoint: solubility (µg/mL)
Express the result in µg/mL but write the number alone.

Answer with the recorded solubility for the compound listed here: O=C(N[C@H]1[C@H](O)[C@@H](O)[C@@H](O)[C@@H]2NC(=O)c3c(cc4c(c3O)OCO4)[C@@H]12)c1ccccc1 [Compound 22]
393
